Quick list: EC50 per entry.
Target: STING (Homo sapiens, UniProt Q86WV6, G230A/H232R/R293Q/R71H)
Sequence (Q86WV6 whole entry R71H/G230A/H232R/R293Q): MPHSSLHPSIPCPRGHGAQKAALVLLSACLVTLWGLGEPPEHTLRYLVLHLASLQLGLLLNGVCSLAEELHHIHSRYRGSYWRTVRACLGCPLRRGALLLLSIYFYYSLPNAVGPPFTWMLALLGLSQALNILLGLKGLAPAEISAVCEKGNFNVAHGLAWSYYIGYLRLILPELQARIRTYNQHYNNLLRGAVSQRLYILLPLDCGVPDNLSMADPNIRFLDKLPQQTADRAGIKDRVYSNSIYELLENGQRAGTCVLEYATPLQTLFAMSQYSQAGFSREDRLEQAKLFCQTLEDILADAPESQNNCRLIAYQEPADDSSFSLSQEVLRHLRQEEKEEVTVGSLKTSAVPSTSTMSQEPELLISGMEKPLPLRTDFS
Assay: STING reporter assay: luciferase reporter activity in THP1-Dual KO-IFNAR2 cells stimulated with 2′3′cGAMP
Conditions: 15 μM 2′3′cGAMP, 24h, read-out: hSTING EC50

Solved entries:
{"Compound": "O=C(Nc1c[nH]c2ccc(-c3cnn(-c4ccc(C(F)(F)F)cc4)c3)cc12)C(CO)C(F)(F)F (centres unmarked)", "EC50": "1 to 5 µM"}
{"Compound": "O=C(Nc1c[nH]c2ccc(-c3cnn(-c4ccc(C(F)(F)F)cc4)c3)cc12)c1ccno1", "EC50": "0.2 to 1 µM"}
{"Compound": "O=C(Nc1c[nH]c2ncc(-c3cnn(-c4ccc(C(F)(F)F)cc4)c3)cc12)C1CCC1", "EC50": "5 to 100 µM"}
{"Compound": "CCC(=O)Nc1c[nH]c2ccc(-c3cnn(-c4ccc(CC(F)(F)F)cc4)c3)cc12", "EC50": "0.2 to 1 µM"}
{"Compound": "CC(=O)N(C)CC(=O)Nc1c[nH]c2ccc(-c3cnn(-c4ccc(C(F)(F)F)cc4)c3)cc12", "EC50": "1 to 5 µM"}
{"Compound": "NC1(C(=O)Nc2c[nH]c3ccc(-c4cnn(-c5ccc(C(F)(F)F)cc5)c4)cc23)CC(F)(F)C1", "EC50": "5 to 100 µM"}

Just so you know, measured EC50 for CC(=O)NC(C)C(=O)Nc1c[nH]c2ccc(-c3cnn(-c4ccc(C(F)(F)F)cc4)c3)cc12 (centres unmarked) came out at 1 to 5 µM

Just so you know, measured EC50 for CCc1ccc(-n2cc(-c3ccc4[nH]cc(NC(=O)C(C)C)c4c3)cn2)cc1 came out at 0.04 to 0.2 µM
